assay remarks: iHOPE in vitro cytotoxicity assessment (Cell Count Reagent SF)
Format: cell-based, human
condition set: human
pIC50: −log10 of the molar value. Counter-ions that a name gives are not always drawn.
outcome measure: pIC50

| compound | outcome measure | result |
| --- | --- | --- |
| Nc1nc(=O)[nH]cc1F | pIC50 | < 4.52 |
| C[C@@H]1[C@H](O)[C@@H](C)/C=C/C=C/C=C/C=C/C=C/C=C/C=C/[C@H](O[C@@H]2O[C@H](C)[C@@H](O)[C@H](N)[C@@H]2O)C[C@@H]2O[C@](O)(C[C@@H](O)C[C@@H](O)[C@H](O)CC[C@@H](O)C[C@@H](O)CC(=O)O[C@H]1C)C[C@H](O)[C@H]2C(=O)O | pIC50 | 4.77 |
| NCCNCCNCCN [Trientine, trientine hydrochloride] | pIC50 | < 4.00 |

Here is another compound to look at.
Prompt line: Provide pIC50 value for the following compound: CC(C)(S)[C@@H](N)C(=O)O
Response line: < 3.00
